Data origin: patent US20130330346A1

Target: T1, Human CXCR2 (human, UniProt P25025 1-360)
T1 sequence: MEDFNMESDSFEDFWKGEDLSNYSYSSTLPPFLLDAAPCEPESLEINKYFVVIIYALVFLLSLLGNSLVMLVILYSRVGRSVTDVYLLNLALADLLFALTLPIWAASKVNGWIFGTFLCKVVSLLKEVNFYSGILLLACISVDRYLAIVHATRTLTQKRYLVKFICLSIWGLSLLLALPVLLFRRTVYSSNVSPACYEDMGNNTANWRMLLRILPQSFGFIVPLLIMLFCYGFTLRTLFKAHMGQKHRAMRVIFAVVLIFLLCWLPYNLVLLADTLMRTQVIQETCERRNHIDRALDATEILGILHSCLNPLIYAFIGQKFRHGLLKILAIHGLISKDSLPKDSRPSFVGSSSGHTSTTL
Test: cell-based or functional assay
measuredProperty: [35S]GTPγS % inhibition of max (ENA-78) (%)
Quick note: give the figure in %, leave out the unit.

binder	[35S]GTPγS % inhibition of max (ENA-78) [%]
CXCR20032 (bispecific antibody, Biparatopic: two VHH joined by a GlySer linker; also called 2B2-35GS-163D2; not shown: C-terminal c-myc tag and His6 tag coded by pAX100) EVQLVESGGELVQPGGSLRLSCAASGSILTINAMGWYRQAPGKQRELVVRRTRGGSTTYQDSVKGRFTISADIAKKTMYLQMNSLKPEDTAVYYCMLDDRGGVYWGQGTQVTVSSGGGGSGGGGSGGGGSGGGGSGGGGSGGGGSGGGGSEVQLVESGGGLVQAGGSLRLSCAASGRTFSDYAMGWFRQAPGKEREFVAAITWNGGRVFYTASVKGRFTISRDNAKNTMYLQMNSLKPEDTAVYYCAADKDRRTDYLGHPVAYWGQGTQVTVSS	100

Next up:
For reference, reported [35S]GTPγS % inhibition of max (ENA-78) for CXCR20031 (bispecific antibody, Biparatopic: two VHH joined by a GlySer linker; also called 2B2-35GS-163E3; not shown: C-terminal c-myc tag and His6 tag coded by pAX100) EVQLVESGGELVQPGGSLRLSCAASGSILTINAMGWYRQAPGKQRELVVRRTRGGSTTYQDSVKGRFTISADIAKKTMYLQMNSLKPEDTAVYYCMLDDRGGVYWGQGTQVTVSSGGGGSGGGGSGGGGSGGGGSGGGGSGGGGSGGGGSEVQLVESGGGLVQPGGSLRLSCVASGRIFSSNAMGWFRQAPGKEREFVAAITWRSGGSAYYADSAKGRFTISRDNAKNTVYLQMNSLKPEDTAVYYCAAGGSSWLSFPPDYWGQGTQVTVSS stands at 100
